Cited source: ChEMBL document CHEMBL4842348

# measurement_notes: Cmax in Beagle dog at 2 mg/kg, po
# Assay type: ADME, organism-based, Canis lupus familiaris
# Set-up: route oral, dose 2 mg/kg
# particulars: in vivo
endpoint: Cmax (nM)
The answer is to be given in nM; state only the numeric part.

Inquiry: Would you mind telling me what Cmax value was observed for COc1ncc(-c2ccc(C(=O)O)cc2C)cc1-c1ccc(C(F)(F)F)cc1[C@@H]1CC[C@H]2[C@@H](c3cc(C(F)(F)F)cc(C(F)(F)F)c3)OC(=O)N12 ?
Reply text: 690

---

Recorded solubility by entry
# measurement_notes: Solubility of the compound in pH 7 phosphate buffer
# Format: physicochemical
Write down the numeric answer in µM and omit the unit.

# molecular_string, solubility [µM]
measured = [
    ("Cc1cc(C(=O)O)ccc1-c1ccc(Cl)c(-c2ccc(C(F)(F)F)cc2CN2C(=O)O[C@H](c3cc(C(F)(F)F)cc(C(F)(F)F)c3)[C@@H]2C)c1", 43),
]

We next turn to a different compound, shown below.
Inquiry: Please look up its solubility: COc1ccc(-c2ccc(C(=O)O)cc2C)cc1-c1ccc(C(F)(F)F)cc1CN1C(=O)O[C@H](c2cc(C(F)(F)F)cc(C(F)(F)F)c2)[C@@H]1C
Reply text: 16

---

# measurement_notes: Half life in lean NFR-transgenic mouse adipose tissue at 10 mg/kg, po qd treated for 40 days
# Format: ADME, organism-based
# particulars: time 40 day
endpoint: half-life

Inquiry: What does the data say about its half-life? Entry: COc1ncc(-c2ccc(C(=O)O)cc2C)cc1-c1ccc(C(F)(F)F)cc1[C@@H]1CC[C@H]2[C@@H](c3cc(C(F)(F)F)cc(C(F)(F)F)c3)OC(=O)N12
Reply text: 36 h

---

# measurement_notes: Terminal half life in DIO NFR-transgenic mouse liver at 30 mg/kg, po once daily for 14 days
# Assay type: ADME, organism-based
# particulars: time 14 day, read-out: beta t1/2 (converted)
endpoint: half-life at […]

Inquiry: Suppose we examine the compound Cc1cc(C)c2c(c1)[C@@H](N(Cc1cc(C(F)(F)F)cc(C(F)(F)F)c1)c1nnn(C)n1)CCCN2C[C@H]1CC[C@H](C(=O)O)CC1 [EVACETRAPIB] ; what half-life at […] value has been reported?
Reply text: 18 h

---

# measurement_notes: Tmax in CD1 mouse at 2 mg/kg, po
# Type: ADME, organism-based
# particulars: in vivo
endpoint: Tmax (h)
Write the answer as a number in h, unit excluded.

Inquiry: State the recorded Tmax for this entry: COc1ncc(-c2ccc(C(=O)O)cc2C)cc1-c1ccc(C(F)(F)F)cc1[C@@H]1CC[C@H]2[C@@H](c3cc(C(F)(F)F)cc(C(F)(F)F)c3)OC(=O)N12
Reply text: 2.7

---

# measurement_notes: Volume of distribution at steady state in Beagle dog at 0.5 mg/kg, iv
# Format: ADME, organism-based, Canis lupus familiaris
# particulars: in vivo, read-out: Vdss
endpoint: Vd (L/kg)
Provide the reading as a plain figure in L/kg.

Inquiry: What value of Vd has been reported for the following compound? COc1ncc(-c2ccc(C(=O)O)cc2C)cc1-c1ccc(C(F)(F)F)cc1[C@@H]1CC[C@H]2[C@@H](c3cc(C(F)(F)F)cc(C(F)(F)F)c3)OC(=O)N12
Reply text: 0.54

---

# measurement_notes: Terminal half life in DIO NFR-transgenic mouse plasma at 10 mg/kg, po once daily for 14 days
# Assay type: ADME, organism-based
# particulars: time 14 day, read-out: beta t1/2 (converted)
endpoint: half-life at […] (h)
// note: answer is a bare numeric in h

Inquiry: Recorded half-life at […] of COc1ncc(-c2ccc(C(=O)O)cc2C)cc1-c1ccc(C(F)(F)F)cc1[C@@H]1CC[C@H]2[C@@H](c3cc(C(F)(F)F)cc(C(F)(F)F)c3)OC(=O)N12 , please.
Reply text: 3.8
